- TARGET ENTITY: T1, huMICA*008 alpha 3-his (human)
- T1 construct: whole construct entry: GS, alpha 3 domain (Thr204-Ser297), GNS, His8; also the construct of the FPOP experiment; also called MICA008.His; MICA*008 alpha3 construct
- T1 chain: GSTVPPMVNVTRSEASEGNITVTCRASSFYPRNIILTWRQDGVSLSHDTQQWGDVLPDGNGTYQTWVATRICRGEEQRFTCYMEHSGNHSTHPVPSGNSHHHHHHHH
- MEASUREMENT NOTES: SPR, Biacore 8K, antibody on Protein A chip

[
  {
    "BINDER": "1D5v18 (antibody, IgG1, V domains shown, humanized variant of 1D5) VH: EIQLVQSGAEVKKPGASVKVSCKASGYAFTSQNIYWVRQAPGQGLEWIGYIEPYNVVPMYNPKFKGRATLTVDKSTSTAYLELSSLRSEDTAVYYCARSGSSNFDYWGQGTLVTVSS VL: DIQLTQSPSSLSASVGDRVTITCSASSSISSHYLHWYQQKPGKSPKLLIYRTSNLASGVPSRFSGSGSGTDFTLTISSLQPEDFATYYCQQGSSLPLTFGQGTKVEIK",
    "UNIT LABEL": "nM",
    "Kd": 0.75
  },
  {
    "BINDER": "1D5v10 (antibody, IgG1, V domains shown, humanized variant of 1D5) VH: EVQLVQSGAEVKKPGASVKVSCKASGYAFTSQNIYWVRQAPGQGLEWMGYIEPYNVVPMYNPKFKGRVTMTTDTSTSTAYMELRSLRSDDTAVYYCARSGSSNFDYWGQGTLVTVSS VL: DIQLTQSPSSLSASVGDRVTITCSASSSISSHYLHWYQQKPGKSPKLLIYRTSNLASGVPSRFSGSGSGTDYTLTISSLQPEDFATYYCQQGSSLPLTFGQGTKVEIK",
    "UNIT LABEL": "nM",
    "Kd": 1.05
  },
  {
    "BINDER": "1D5v25 (antibody, IgG1, V domains shown, humanized variant of 1D5) VH: EVQLVQSGAEVKKPGASVKVSCKASGYAFTSQNIYWVRQAPGQGLEWIGYIEPYNVVPMYNPKFKGRVTITVDTSTSTAYLELSSLRSEDTAVYYCARSGSSNFDYWGQGTLVTVSS VL: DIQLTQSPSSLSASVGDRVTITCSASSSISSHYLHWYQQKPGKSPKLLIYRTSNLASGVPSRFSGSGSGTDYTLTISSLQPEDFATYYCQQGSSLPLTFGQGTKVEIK",
    "UNIT LABEL": "nM",
    "Kd": 0.93
  }
]

All figures here come from patent US20200055939A1.
